# credit: patent US10760052B2

- Tested On: mu opiate receptor (MOR) (Rattus norvegicus, UniProt P33535)
- Construct: from tissue; host or cells: striatum (membrane preparation)
- Sequence (P33535 whole entry): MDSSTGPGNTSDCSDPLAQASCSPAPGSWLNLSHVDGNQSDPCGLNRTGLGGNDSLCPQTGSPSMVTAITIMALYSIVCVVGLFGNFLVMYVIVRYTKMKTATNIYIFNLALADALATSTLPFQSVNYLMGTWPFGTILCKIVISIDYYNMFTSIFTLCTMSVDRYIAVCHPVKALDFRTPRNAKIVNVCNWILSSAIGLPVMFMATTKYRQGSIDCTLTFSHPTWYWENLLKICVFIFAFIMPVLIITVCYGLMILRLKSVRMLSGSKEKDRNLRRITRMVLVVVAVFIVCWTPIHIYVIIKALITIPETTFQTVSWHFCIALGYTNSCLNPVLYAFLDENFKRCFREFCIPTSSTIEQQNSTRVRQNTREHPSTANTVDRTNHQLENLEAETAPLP
- Assay type: biochemical
Assay Readout: % DAMGO (1 μM) (%)
One number for each entry, in %.

[
  {
    "Compound": "COc1ccc(NC(=O)N2CCC3(CC2)NCCO3)cc1 [Compound C0151M-2]",
    "Reading Unit": "%",
    "Measured Number": 122.0
  },
  {
    "Compound": "CN1CCC2(CC1)NC(=O)CN2Cc1ccccc1 [Compound C0104M]",
    "Reading Unit": "%",
    "Measured Number": 96.3
  },
  {
    "Compound": "COc1cccc(CC(=O)CC2c3c(cc4c(c3OC)OCO4)CC[N+]2(C)C)c1OC (centres unmarked) [Compound B0038]",
    "Reading Unit": "%",
    "Measured Number": 88.7
  },
  {
    "Compound": "CC1CCC(C(C)C)C(OCC(O)CN2CCC(=O)C(C)C2)C1 (centres unmarked) [Compound A0056]",
    "Reading Unit": "%",
    "Measured Number": 56.2
  },
  {
    "Compound": "COc1ccc(C(=O)CC2c3c(cc4c(c3OC)OCO4)CC[N+]2(C)C)cc1OC (centres unmarked) [Compound B0026]",
    "Reading Unit": "%",
    "Measured Number": 87.4
  }
]

Dear reader, for each entry below, please note its % DAMGO (1 μM).
1. COc1ccccc1CCC(=O)CC1c2c(cc3c(c2OC)OCO3)CC[N+]1(C)C (centres unmarked) [Compound B0045]
2. COc1ccc(S(=O)(=O)N2CCC3(OCCN3S(=O)(=O)c3ccc(OC)cc3)C3CCCCC32)cc1 (centres unmarked) [Compound C0144M]
3. COc1ccc(S(=O)(=O)N2CCOC23CCN(C)CC3)cc1 [Compound C0088M]

1: 83.4; 2: 90.8; 3: 161.7

----------
- Tested On: mu opiate receptor (MOR) (Rattus norvegicus)
- Construct: from tissue; host or cells: striatum (membrane preparation)
- Type: biochemical
Assay Readout: % DAMGO (1 μM)
Kindly write the number and append the unit.

Below: 6 compounds and their reported % DAMGO (1 μM).
[
  {
    "Compound": "COc1ccc(OCC(O)CN2CC(C)OC(C)C2)cc1 (centres unmarked)",
    "% DAMGO (1 μM)": "109.7%"
  },
  {
    "Compound": "COc1ccc(CCC(=O)CC2c3c(cc4c(c3OC)OCO4)CC[N+]2(C)C)cc1OC (centres unmarked)",
    "% DAMGO (1 μM)": "42.3%"
  },
  {
    "Compound": "O=[N+]([O-])c1ccc(S(=O)(=O)N2CCC3(CC2)NCCCO3)cc1",
    "% DAMGO (1 μM)": "109.1%"
  },
  {
    "Compound": "O=C1CN(Cc2ccccc2)C2(CCN(CC3CC3)CC2)N1 [Compound C0125M]",
    "% DAMGO (1 μM)": "78.6%"
  },
  {
    "Compound": "COc1ccc(CCCCC2c3c(cc4c(c3OC)OCO4)CC[N+]2(C)C)cc1 (centres unmarked)",
    "% DAMGO (1 μM)": "113.6%"
  },
  {
    "Compound": "CC(=O)c1ccc(S(=O)(=O)N2CCOC23CCN(CC2CC2)CC3)cc1 [Compound C0095M]",
    "% DAMGO (1 μM)": "88.8%"
  }
]

Dear reader, for each entry below, please note its % DAMGO (1 μM).
1. O=S(=O)(c1ccc(C(F)(F)F)cc1)N1CCC2(CC1)OCCN2S(=O)(=O)c1ccc(C(F)(F)F)cc1
2. CC(=O)c1ccc(S(=O)(=O)N2CCOC23CCN(C)CC3)cc1 [Compound C0093M]

["86.7%", "96.4%"]

----------
- Tested On: mu opiate receptor (MOR) (Rattus norvegicus)
- Construct: from tissue; host or cells: striatum (membrane preparation)
- Format: biochemical
Assay Readout: % DAMGO (1 μM) (%)
Answers are plain numbers, in %.

Below: 7 molecules and their reported % DAMGO (1 μM).
[
  {
    "Molecule": "COc1cc(S(=O)(=O)N2CCC3(CC2)OCCN3S(=O)(=O)c2cc(OC)c(OC)c(OC)c2)cc(OC)c1OC",
    "% DAMGO (1 μM) [%]": 134.7
  },
  {
    "Molecule": "CC(=O)c1ccc(S(=O)(=O)N2CC(CN(C)C)OC23CCN(C)CC3)cc1 (centres unmarked) [Compound C0108M]",
    "% DAMGO (1 μM) [%]": 104.1
  },
  {
    "Molecule": "COc1c2c(cc3c1C(CC(O)Cc1ccccc1C)N(C)CC3)OCO2 (centres unmarked)",
    "% DAMGO (1 μM) [%]": 85.3
  },
  {
    "Molecule": "O=[N+]([O-])c1ccc(S(=O)(=O)N2CCC3(CC2)NCCS3)cc1",
    "% DAMGO (1 μM) [%]": 128.0
  },
  {
    "Molecule": "CC(=O)c1ccc(S(=O)(=O)N2CCOC23CCN(CC(=O)O)CC3)cc1 [Compound C0100M]",
    "% DAMGO (1 μM) [%]": 110.6
  },
  {
    "Molecule": "CC1CCC(C(C)C)C(OCC(O)CN2CCN(CCCN3CCOCC3)CC2)C1 (centres unmarked)",
    "% DAMGO (1 μM) [%]": 70.7
  },
  {
    "Molecule": "CC(=O)c1ccc(S(=O)(=O)N2CC(=O)NC23CCNCC3)cc1 [Compound C0086M]",
    "% DAMGO (1 μM) [%]": 104.9
  }
]

# return recorded % DAMGO (1 μM) for input CCCCN1CCC2(CC1)OCCN2S(=O)(=O)c1ccc(C(C)=O)cc1 [Compound C0101M]
123.4

----------
- Tested On: mu opiate receptor (MOR) (Rattus norvegicus, UniProt P33535)
- Construct: from tissue; host or cells: striatum (membrane preparation)
- Type: biochemical
- Reported Conditions: [35S]GTPγS binding to Gαo in striatal membranes; compound 1 μM
What Concentration of FLNA-Binding Compound as Agonist 1 μM was measured for each of the following?
Answers are plain numbers, in %.

[
  {
    "Compound": "CC(=O)c1ccc(S(=O)(=O)N2CCC3(CC2)NC(=O)CN3Cc2ccccc2)cc1 [Compound C0085M]",
    "Tested On": "mu opiate receptor (MOR) (Rattus norvegicus, UniProt P33535)",
    "Measured Number": 246.2
  },
  {
    "Compound": "COC(=O)c1ccc(S(=O)(=O)N2CCC3(CC2)OCCN3S(=O)(=O)c2ccc(C(=O)OC)cc2)cc1 [Compound C0028]",
    "Tested On": "mu opiate receptor (MOR) (Rattus norvegicus, UniProt P33535)",
    "Measured Number": 132.4
  },
  {
    "Compound": "Cc1ccc(C(C)C)c(OCC(O)CN2CC(C)OC(C)C2)c1 (stereo not shown) [Compound A0028]",
    "Tested On": "mu opiate receptor (MOR) (Rattus norvegicus, UniProt P33535)",
    "Measured Number": 187.7
  }
]

For the next question, use this compound.
# return recorded Concentration of FLNA-Binding Compound as Agonist 1 μM for input CC1CCC(C(C)C)C(OCC(O)CN2CCN(C)CC2)C1 (stereo not shown) [Compound A0009]
126.4

----------
What [35S]GTPγS binding, FLNA-Binding Compound as Agonist at 1 μM was measured for each of the following?
- Tested On: mu opiate receptor (MOR) (Rattus norvegicus, UniProt P33535)
- Construct: from tissue; host or cells: striatum (membrane preparation)
- Assay type: biochemical
- Reported Conditions: 1 μM compound; striatal membranes; Series C-2
Answers are plain numbers, in %.

Below: 2 compounds and their reported [35S]GTPγS binding, FLNA-Binding Compound as Agonist at 1 μM.
[
  {
    "Compound": "CC(=O)c1ccc(S(=O)(=O)N2CCOC23CCNCC3)cc1 [Compound C0046]",
    "Measured Number": 492.9
  },
  {
    "Compound": "CC(=O)c1ccc(S(=O)(=O)N2CCOC23CCN(CC2CC2)CC3)cc1 [Compound C0095M]",
    "Measured Number": 224.6
  }
]

For the next question, use this compound.
# return recorded [35S]GTPγS binding, FLNA-Binding Compound as Agonist at 1 μM for input COc1ccc(S(=O)(=O)N2CCC3(CC2)NCCC(=O)N3)cc1 [Compound C0142M]
192.5

----------
- Tested On: mu opiate receptor (MOR) (Rattus norvegicus, UniProt P33535)
- Construct: from tissue; host or cells: striatum (membrane preparation)
- Type: biochemical
Assay Readout: % DAMGO (0.1 μM) (%)
Numbers only, in %.

[
  {
    "Molecule": "CC1CN(CC(O)COc2ccc(Br)c(Cl)c2)CC(C)O1 (stereo not shown)",
    "% DAMGO (0.1 μM) (%)": 73.3
  }
]

Dear reader, for each entry below, please note its % DAMGO (0.1 μM).
1. COc1ccc(C(=O)N2CCC3(CC2)OCCN3C(=O)c2ccc(OC)cc2)cc1
2. O=S(=O)(c1cccc(OC(F)(F)F)c1)N1CCC2(CC1)OCCN2S(=O)(=O)c1cccc(OC(F)(F)F)c1
3. O=S(=O)(c1ccccc1Oc1ccccc1)N1CCC2(CC1)NCCO2 [Compound C0149M-2]
4. O=S(=O)(c1ccc(F)cc1)N1CCC2(CC1)OCCN2S(=O)(=O)c1ccc(F)cc1
5. COc1c2c(cc3c1C(CC(=O)/C=C/c1ccc(Cl)cc1)[N+](C)(C)CC3)OCO2 (stereo not shown)
6. CC1CCC(C(C)C)C(OCC(O)CN2CCC2)C1 (stereo not shown)
7. CC(=O)c1ccc(OCC(O)CN2CC(C)OC(C)C2)cc1 (stereo not shown)
8. CC1CCC(C(C)C)C(OCC(O)CN2CC(C)OC(C)C2)C1 (stereo not shown) [Compound A3333]

1: 87.1; 2: 105.4; 3: 122.0; 4: 91.2; 5: 59.7; 6: 64.8; 7: 89.8; 8: 88.9

Dear reader, for each entry below, please note its % DAMGO (0.1 μM).
1. CS(=O)(=O)c1ccc(S(=O)(=O)N2CCOC23CCNCC3)cc1 [Compound C0116M]
2. CC1CCC(C(C)C)C(OCC(O)CN2CCc3ccccc3C2)C1 (stereo not shown)
3. CC1CCN(CC(O)COC2CC(C)CCC2C(C)C)CC1 (stereo not shown)
4. O=S(=O)(c1ccc(Cl)cc1)N1CCC2(CC1)OCCN2S(=O)(=O)c1ccc(Cl)cc1

[136.6, 23.5, 113.8, 82.9]

Dear reader, for each entry below, please note its % DAMGO (0.1 μM).
1. Nc1ccc(C(=O)N2CCC3(CC2)OCCN3S(=O)(=O)c2ccc(N)cc2)cc1
2. CC(=O)c1ccc(S(=O)(=O)N2CCOC23CCN(C)CC3)cc1 [Compound C0093M]
3. COc1ccc(NC(=O)N2CCC3(CC2)NCCO3)cc1 [Compound C0151M-2]
4. CC1CCC(C(C)C)C(OCC(O)CN2CCC(=O)CC2)C1 (stereo not shown)
5. COc1c2c(cc3c1C(CC(=O)c1ccc(F)c(F)c1)[N+](C)(C)CC3)OCO2 (stereo not shown)
6. OC(COc1ccc(Br)c(F)c1)CN1CCc2ccccc2C1 (stereo not shown)
7. COC(=O)c1ccc(S(=O)(=O)N2CCC3(CC2)OCCN3S(=O)(=O)c2ccc(C(=O)OC)cc2)cc1

1. 89.5
2. 81.3
3. 201.6
4. 63.9
5. 59.9
6. 79.6
7. 55.6

Dear reader, for each entry below, please note its % DAMGO (0.1 μM).
1. CC1CCC(C(C)C)C(OCC(O)CN2CCCCCCC2)C1 (stereo not shown)
2. CCCCN1CCC2(CC1)OCCN2S(=O)(=O)c1ccc(OC)cc1 [Compound C0102M]
3. CN1CCC2(CC1)NC(=O)CN2Cc1ccccc1 [Compound C0104M]
4. CC1CCC(C(C)C)C(OCC(O)CN2CCN(CCc3ccccc3)CC2)C1 (stereo not shown)
5. CC1CCC(C(C)C)C(OCC(O)CN2CCN(C)CC2)C1 (stereo not shown)
6. O=S(=O)(c1ccc(C(F)(F)F)cc1)N1CCC2(CC1)OCCN2S(=O)(=O)c1ccc(C(F)(F)F)cc1
7. COc1ccc(S(=O)(=O)N2CCOC23CCN(C)CC3)cc1 [Compound C0088M]
8. CC1CCC(C(C)C)C(OCC(O)CN2CCOCC2)C1 (stereo not shown)

1: 83.2; 2: 78.6; 3: 99.5; 4: 100.9; 5: 39.8; 6: 54.8; 7: 160.5; 8: 55.2
